Origin of the recorded values: paper PMC10459693

# assay_comment: Biodistribution in SCID mice bearing AsPC-1 xenografts
# Type: in vivo
# cond: male, mouse, blood, iv, 3 pmol, total radioactivity, 4 h pi, Controls, read-out: uptake in Blood
Peptide text beside a SMILES is read from it. * marks the point of attachment. Palmitoyl = CCCCCCCCCCCCCCCC(=O)*; X1 = NCCNCC(CNCCN)C(=O)*
quantity_kind: tissue uptake at 4 h (%ID/g)

{"molecule": "CCCCCCCCCCCCCCCC(=O)NCCCC[C@H](NC(=O)C(CNCCN)CNCCN)C(=O)N[C@@H](CCCNC(=N)N)C(=O)N[C@@H](CCCNC(=N)N)C(=O)N1CCC[C@H]1C(=O)N[C@@H](Cc1ccc(O)cc1)C(=O)N[C@H](C(=O)N[C@@H](CC(C)C)C(=O)O)[C@@H](C)CC [[^99mTc]Tc-DT9, metal not drawn] (X1-K(Palmitoyl)RRPYIL-OH)", "quantity_kind": "tissue uptake at 4 h", "result_value": 4.63}
